Kindly supply the reported melting point values for the records listed here.
Report as a plain number; the unit °C is understood.

Request: Need melting point, item CNC(=O)C(NC(=O)c1cn(C)nc1C(F)(F)F)C(CO)c1ccccc1 (racemic) [Compound 3.1]
Response: 194

Request: Need melting point, item CNC(=O)[C@H](NC(=O)c1cn(C)nc1C(F)(F)F)[C@H](CNC(=O)C(F)(F)F)c1ccccc1 (racemic)
Response: 233

Request: Need melting point, item CNC(=O)[C@H](NC(=O)c1cn(C)nc1C(F)(F)F)[C@H](C[N+](=O)[O-])c1ccccc1 (racemic)
Response: 119

Request: Need melting point, item CNC(=O)[C@@H](NC(=O)c1cn(C)nc1C(F)(F)F)[C@H](CN)c1ccccc1 (racemic)
Response: 91

Request: Need melting point, item CNC(=O)C(NC(=O)c1cn(C)nc1C(F)(F)F)C(CO)c1ccccc1 (racemic) [Compound 3.2]
Response: 202

Just for reference, patent US20090186766A1 is where these values come from.
